settings: buffer; pH 7.4; 200.0 µM
Label Fulfilled when solubility kinetic is at or above 0.004 mg/mL; otherwise label Not fulfilled.

In plain terms: is recorded solubility kinetic at least 0.004 mg/mL for `O=C(COC(=O)C1=COCCO1)Nc1ccccc1OC(F)F` ?
Fulfilled

Determine whether this compound has solubility kinetic no lower than 0.004 mg/mL: `CCOc1ccc(Cl)cc1CNCCCSc1ncccn1`
Fulfilled

Record `Cn1c(CC(=O)Nc2ccccc2)cc2ccccc21` ; criterion: solubility kinetic no lower than 0.004 mg/mL. Met?
Not fulfilled

Is reported solubility kinetic greater than or equal to 0.004 mg/mL here: `O=C(NCc1ccc(F)cc1)c1cc(C(=O)C2CC2)c[nH]1`
Fulfilled

Hi team, for `O=S(=O)(c1c(Cl)cc(Br)cc1Cl)N1CCN(C(=S)NC2CC2)CC1` , is the recorded solubility kinetic at or above 0.004 mg/mL?
Fulfilled

Does the reported solubility kinetic for CCCCC12CN3CC(C)(CN(C1)C3c1ccc([N+](=O)[O-])o1)C2=O (configuration not stated) fall at or above the 0.004 mg/mL mark?
Fulfilled

Entry `CN1C(=O)N(CC(=O)Nc2nccs2)C(=O)C12CCCCC2` : is its solubility kinetic no less than 0.004 mg/mL?
Fulfilled

Dear colleague, could you confirm whether `O=C1C(=O)N(CC(=O)N2CCCC2)c2ccccc21` has solubility kinetic at or above 0.004 mg/mL?
Fulfilled

Does the reported solubility kinetic for `CCOc1ccccc1NC(=O)CN1C(=O)COc2ccccc21` fall at or above the 0.004 mg/mL mark?
Not fulfilled

Determine whether measured solubility kinetic meets or exceeds 0.004 mg/mL for `Cc1ccccc1N(CC(=O)N1CCCCCC1)S(C)(=O)=O`
Fulfilled

Evaluate `Cn1c(O)c(/C=C2\C=c3ccccc3=NC2=O)c(=O)n(C)c1=O` : solubility kinetic at minimum 0.004 mg/mL?
Fulfilled

Say whether `CC1(C)CC(NC(=S)NC2CC2)CC(C)(C)N1` shows solubility kinetic of 0.004 mg/mL or more.
Fulfilled

Record `CCOC(=O)Cc1csc(NC(=O)COC(=O)/C=C/c2ccc(OC)cc2)n1` ; criterion: solubility kinetic no lower than 0.004 mg/mL. Met?
Fulfilled

hey, is solubility kinetic for this one >= 0.004 mg/mL? `O=C(Nc1cccnc1)c1cc([N+](=O)[O-])ccc1Cl`
Fulfilled

Could you tell me if the measured solubility kinetic of `O=[N+]([O-])c1ccc(CN2CCCCCC2)cc1` reaches 0.004 mg/mL or more?
Fulfilled

I'd appreciate it if you could say whether `N#Cc1ccccc1NC(=O)c1ccc2c(c1)OCO2` has solubility kinetic at least equal to 0.004 mg/mL.
Fulfilled

Decide: is the reported value of solubility kinetic for `COC(=O)CSc1nc(N)c(C#N)c(-c2ccc(O)cc2)c1C#N` equal to or greater than 0.004 mg/mL?
Not fulfilled

* * *

settings: buffer; pH 7.4; 200.0 µM
reported-property: solubility kinetic

Sure, the documented solubility kinetic for `O=C1c2ccccc2S(=O)(=O)N1Cc1c(F)cccc1Cl` is < 0.7 µg/mL

Just so you know, measured solubility kinetic for `O=C(O)CN1C(=O)C2(OCCO2)c2cc(Br)ccc21` came out at > 49.2 µg/mL

So, COC(=O)NC1c2ccccc2Oc2ccc(C)cc21 (stereo not given) ? Its solubility kinetic was < 0.6 µg/mL

Item: COc1ccc(NC2c3ccccc3C(=O)N2c2cccnc2)cc1 (stereo not given) | solubility kinetic: > 49.7 µg/mL

So, `O=C(NNC(=O)c1cccnc1)NC1CCCCC1` ? Its solubility kinetic was > 39.3 µg/mL

Reference source for all entries: PubChem BioAssay AID1996
